# SYSTEM NAME: EGFR mutant Del19 (E746-A750) (Homo sapiens, UniProt P00533, DEL746-750)
# Construct: truncated human JAK3, EGFR mutants such as del E746-A750; purchased Carna Biosciences
# Sequence (P00533 with tags, fused parts or gaps DEL746-750 limits assumed): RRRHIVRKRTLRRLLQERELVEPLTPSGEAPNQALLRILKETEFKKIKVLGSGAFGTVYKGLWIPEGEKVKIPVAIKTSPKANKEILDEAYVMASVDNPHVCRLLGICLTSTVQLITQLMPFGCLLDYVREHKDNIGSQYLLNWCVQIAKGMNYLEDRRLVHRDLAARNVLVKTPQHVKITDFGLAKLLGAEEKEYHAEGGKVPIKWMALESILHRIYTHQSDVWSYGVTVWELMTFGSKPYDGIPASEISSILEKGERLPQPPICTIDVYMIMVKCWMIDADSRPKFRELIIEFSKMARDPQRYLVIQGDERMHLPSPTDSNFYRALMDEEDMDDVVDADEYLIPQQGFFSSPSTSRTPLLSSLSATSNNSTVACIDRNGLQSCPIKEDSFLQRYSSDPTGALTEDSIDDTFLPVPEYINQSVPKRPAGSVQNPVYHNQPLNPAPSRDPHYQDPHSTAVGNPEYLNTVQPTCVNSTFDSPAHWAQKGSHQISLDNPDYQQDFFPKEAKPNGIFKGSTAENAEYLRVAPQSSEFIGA
# ASSAY PROCEDURE: Kinase inhibition assay, EGFR del E746-A750;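 further: truncated human EGFR mutant kinase, two-hour preincubation with compound, then one-hour reaction with ATP and ULight-PolyGT peptide, LANCE Europium-antibody phosphorylation readout, IC50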
# Assay type: biochemical
# MEASUREMENT CONDITIONS: read-out: EGFR mutants Del19 (E746-A750)

# COMPOUND, IC50
measured = [
    ("C=CC(=O)Nc1cc(Nc2nccc(-n3cc(CN(C)C)c(-c4ccoc4)n3)n2)c(OC)cc1N1CCOCC1 [Compound 127]", "< 20 nM"),
    ("C=CC(=O)Nc1cc(Nc2ncc(C)c(-n3cc(CN(C)C)c(C(C)(C)C)n3)n2)c(OC)cc1N1CCOCC1 [Compound 7]", "< 20 nM"),
    ("C=CC(=O)Nc1cc(Nc2ncc(C)c(-n3cc(CN4CCC4)c(-c4ccccc4)n3)n2)c(OC)cc1N1CCOCC1 [Compound 121]", "< 20 nM"),
    ("COc1cc(N2CCOCC2)c(N)cc1Nc1nccc(-n2cc(CN(C)C)c(-c3ccccc3)n2)n1 [Compound 153, reference compound]", "> 1000 nM"),
    ("C=CC(=O)Nc1cc(Nc2nccc(-n3cc(CN4CCC4)c(-c4ccccc4)n3)n2)c(OC)cc1N(C)C1COC1 [Compound 97]", "20 to 200 nM"),
    ("C=CC(=O)Nc1cc(Nc2nccc(-n3cc(CN(C)C)c(C)n3)n2)c(OC)cc1N(C)C [Compound 71]", "< 20 nM"),
    ("C=CC(=O)Nc1cc(Nc2nccc(-n3cc(CN4CCC4)c(-c4ccccc4)n3)n2)c(OC)cc1N1CCN(C(C)=O)CC1 [Compound 134]", "< 20 nM"),
    ("C=CC(=O)Nc1cc(Nc2ncc(C)c(-n3cc(CN4CCC4)c(C(C)(C)C)n3)n2)c(OC)cc1N1CCOCC1 [Compound 67]", "< 20 nM"),
    ("C=CC(=O)Nc1cc(Nc2nccc(-n3cc(CN4CCC4)c(C4CC4)n3)n2)c(OC)cc1N1CCC1 [Compound 139]", "< 20 nM"),
    ("C=CC(=O)Nc1cc(Nc2ncc(C)c(-n3cc(CN(C)C4CN(C)C4)cn3)n2)c(OC)cc1N1CCOCC1 [Compound 23]", "201 to 1000 nM"),
    ("C=CC(=O)Nc1cc(Nc2ncc(C)c(-n3cc(CN4CCC4)cn3)n2)c(OC)cc1C1=CCN(C)CC1 [Compound 64]", "< 20 nM"),
    ("C=CC(=O)Nc1cc(Nc2nccc(-n3cc(CN(C)C)c(C(C)C)n3)n2)c(OC)cc1N1CCOCC1 [Compound 93]", "< 20 nM"),
    ("C=CC(=O)Nc1cc(Nc2nccc(-n3cc(CN4CCC4)c(C)n3)n2)c(OC)cc1N1CCC(F)(F)CC1 [Compound 69]", "< 20 nM"),
    ("C=CC(=O)Nc1cc(Nc2ncc(Cl)c(-n3cc(CN4C[C@H](O)[C@H](OC)C4)c(C)n3)n2)c(OC)cc1N1CCOCC1 [Compound 51]", "20 to 200 nM"),
]

---

# SYSTEM NAME: EGFR mutant T790M (Homo sapiens, UniProt P00533, T790M)
# Construct: truncated human JAK3, EGFR mutants such as del E746-A750
# Sequence (P00533 669-1210 T790M limits assumed): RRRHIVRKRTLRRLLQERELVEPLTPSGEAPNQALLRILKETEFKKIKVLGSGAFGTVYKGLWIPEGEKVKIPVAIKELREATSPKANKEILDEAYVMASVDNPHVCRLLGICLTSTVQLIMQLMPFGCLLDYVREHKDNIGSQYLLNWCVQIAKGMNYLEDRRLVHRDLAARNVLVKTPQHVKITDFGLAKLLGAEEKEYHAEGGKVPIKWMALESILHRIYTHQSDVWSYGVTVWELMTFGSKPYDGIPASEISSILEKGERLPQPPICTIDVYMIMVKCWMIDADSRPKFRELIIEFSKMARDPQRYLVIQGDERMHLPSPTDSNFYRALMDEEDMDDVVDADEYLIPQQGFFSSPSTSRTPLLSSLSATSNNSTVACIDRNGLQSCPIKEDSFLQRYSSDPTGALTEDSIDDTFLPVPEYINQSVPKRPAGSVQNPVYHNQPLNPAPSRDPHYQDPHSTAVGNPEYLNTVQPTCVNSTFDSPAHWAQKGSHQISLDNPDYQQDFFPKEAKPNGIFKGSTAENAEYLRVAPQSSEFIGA
# ASSAY PROCEDURE: Kinase inhibition assay, EGFR mutant T790M;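 further: truncated human EGFR mutant enzyme preincubated two hours with compound, then ATP plus ULight-PolyGT peptide for one hour, Europium-labeled antibody LANCE detection, IC50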
# MEASUREMENT CONDITIONS: biochemical potency

# COMPOUND, IC50
records = [
    ("C=CC(=O)Nc1cc(Nc2nccc(-n3cc(CN(C)C)c(C4CC4)n3)n2)c(OC)cc1N(C)CCOC", "< 20 nM"),
    ("C=CC(=O)Nc1cc(Nc2ncc(C)c(-n3cc(CN4CCC4)cn3)n2)c(OC)cc1N(C)CCN(C)C", "< 20 nM"),
    ("C=CC(=O)Nc1cc(Nc2nccc(-n3cc(CN(C)C)c(-c4ccccc4)n3)n2)c(OC)cc1N(C)C1COC1", "20 to 200 nM"),
    ("C=CC(=O)Nc1cc(Nc2nccc(-n3cc(CN(C)C)c(C(C)(C)C)n3)n2)c(OC)cc1N(C)C1COC1", "< 20 nM"),
    ("Cc1cc(Nc2nccc(-n3cc(CN4CC(O)C4)c(C)n3)n2)cc(C)c1OCCO [Compound 149, reference compound]", "> 1000 nM"),
    ("C=CC(=O)Nc1cc(Nc2nccc(-n3cc(CN(C)C)c(C(C)C)n3)n2)c(OC)cc1N1CCOCC1", "< 20 nM"),
    ("C=CC(=O)Nc1cc(Nc2nccc(-n3cc(CN4C[C@H](O)[C@H](OC)C4)c(C4CC4)n3)n2)c(OC)cc1N1CCOCC1", "< 20 nM"),
    ("C=CC(=O)Nc1cc(Nc2ncc(C)c(-n3cc(CN(C)C)c(-c4ccccc4)n3)n2)c(OC)cc1N1CCOCC1", "< 20 nM"),
    ("C=CC(=O)Nc1cc(Nc2ncc(Cl)c(-n3cc(CN4C[C@H](O)[C@H](OC)C4)c(C)n3)n2)c(OC)cc1N1CCOCC1", "< 20 nM"),
    ("C=CC(=O)Nc1cc(Nc2ncc(C)c(-n3cc(CN4CCC4)cn3)n2)c(OC)cc1N1CCOCC1", "< 20 nM"),
    ("C=CC(=O)Nc1cc(Nc2ncc(Cl)c(-n3cc(CN(C)C)c(C)n3)n2)c(OC)cc1N1CCOCC1", "< 20 nM"),
    ("C=CC(=O)Nc1cc(Nc2nccc(-n3cc(CN(C)C)c(-c4cc(C)ccc4C)n3)n2)c(OC)cc1N1CCOCC1", "20 to 200 nM"),
    ("C=CC(=O)Nc1cc(Nc2nccc(-n3cc(CO)c(C)n3)n2)c(OC)cc1N1CCOCC1", "20 to 200 nM"),
    ("C=CC(=O)Nc1cc(Nc2nccc(-n3cc(CN(C)C)c(C)n3)n2)c(OC)cc1N1CCN(C)CC1", "< 20 nM"),
]

Data origin: patent USRE50528E1
